target: T1, Human c-Met-Flis-Fc ECD (human); assay: ELISA, coated ECD-Fc, antibody 0.010 ng/mL
T1 construct: also called human c-Met extracellular domain (ECD)-Fc-Flis fusion; Human cMet-ECD-Fc-Flis
T1 sequence (chain, as listed by the source limits assumed): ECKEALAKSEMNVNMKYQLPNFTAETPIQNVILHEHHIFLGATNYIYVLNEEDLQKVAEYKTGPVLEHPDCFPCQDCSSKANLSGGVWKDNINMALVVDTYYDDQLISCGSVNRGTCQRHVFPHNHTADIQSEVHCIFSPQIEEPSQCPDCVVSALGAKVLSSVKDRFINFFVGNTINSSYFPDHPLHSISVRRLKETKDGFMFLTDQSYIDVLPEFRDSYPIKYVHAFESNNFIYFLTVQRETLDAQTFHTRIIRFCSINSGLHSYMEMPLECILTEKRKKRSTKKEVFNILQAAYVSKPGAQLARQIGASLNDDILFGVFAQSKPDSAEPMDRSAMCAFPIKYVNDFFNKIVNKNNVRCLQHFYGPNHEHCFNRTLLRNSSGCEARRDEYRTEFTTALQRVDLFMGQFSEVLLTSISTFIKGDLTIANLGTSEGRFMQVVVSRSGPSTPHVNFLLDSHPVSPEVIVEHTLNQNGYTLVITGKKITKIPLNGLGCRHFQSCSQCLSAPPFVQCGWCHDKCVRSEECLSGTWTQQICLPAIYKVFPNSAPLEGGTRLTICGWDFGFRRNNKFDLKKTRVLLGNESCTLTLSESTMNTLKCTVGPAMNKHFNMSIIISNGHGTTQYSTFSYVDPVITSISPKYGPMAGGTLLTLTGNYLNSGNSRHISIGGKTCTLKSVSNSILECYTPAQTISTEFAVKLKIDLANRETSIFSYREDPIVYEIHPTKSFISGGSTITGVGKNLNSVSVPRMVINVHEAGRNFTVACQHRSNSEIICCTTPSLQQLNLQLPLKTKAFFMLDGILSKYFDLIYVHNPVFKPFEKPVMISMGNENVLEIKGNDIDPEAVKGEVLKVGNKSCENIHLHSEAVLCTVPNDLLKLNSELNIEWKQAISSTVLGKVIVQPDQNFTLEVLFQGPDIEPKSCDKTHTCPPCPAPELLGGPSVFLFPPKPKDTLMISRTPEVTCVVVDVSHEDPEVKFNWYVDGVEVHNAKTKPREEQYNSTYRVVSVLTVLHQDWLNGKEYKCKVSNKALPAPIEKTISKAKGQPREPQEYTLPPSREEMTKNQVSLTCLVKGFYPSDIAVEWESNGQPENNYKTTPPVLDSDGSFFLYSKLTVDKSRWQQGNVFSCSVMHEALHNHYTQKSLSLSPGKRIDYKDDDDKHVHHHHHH
endpoint.label: Average A450 nm (A450 nm)
Expressed in A450 nm, but write only the number.

The binder identified as D11-C27G3 (antibody, human IgG2, kappa, V domains shown, Human engineered IgG2, kappa; also called D11-27G3) VH: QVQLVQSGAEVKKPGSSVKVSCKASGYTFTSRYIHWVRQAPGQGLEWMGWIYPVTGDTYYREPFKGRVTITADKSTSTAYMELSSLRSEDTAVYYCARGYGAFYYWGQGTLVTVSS VL: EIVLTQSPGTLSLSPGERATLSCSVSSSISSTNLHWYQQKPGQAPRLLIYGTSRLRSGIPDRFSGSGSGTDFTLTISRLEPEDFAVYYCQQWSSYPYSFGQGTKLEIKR registered its Average A450 nm at 0.29

Data point: C8-6 (antibody, human IgG2, kappa, V domains shown, Called IgG4, kappa; also called Mab C8-6) VH: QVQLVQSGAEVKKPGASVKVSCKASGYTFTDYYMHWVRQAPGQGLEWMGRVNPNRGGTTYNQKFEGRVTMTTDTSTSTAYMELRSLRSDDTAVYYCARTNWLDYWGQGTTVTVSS VL: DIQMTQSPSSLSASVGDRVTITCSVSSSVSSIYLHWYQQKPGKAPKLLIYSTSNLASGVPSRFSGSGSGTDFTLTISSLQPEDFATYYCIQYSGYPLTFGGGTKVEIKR ; Average A450 nm = 0.335

Record C8-co-16 (antibody, human IgG2, kappa, V domains shown, Called IgG4, kappa) VH: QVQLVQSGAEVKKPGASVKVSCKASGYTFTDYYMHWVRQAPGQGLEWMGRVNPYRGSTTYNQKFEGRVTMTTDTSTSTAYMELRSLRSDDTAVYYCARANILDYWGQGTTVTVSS VL: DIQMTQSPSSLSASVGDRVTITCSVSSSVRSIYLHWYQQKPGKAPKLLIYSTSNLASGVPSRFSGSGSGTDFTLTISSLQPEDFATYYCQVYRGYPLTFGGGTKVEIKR , field Average A450 nm: 0.374

// Average A450 nm value for D11-S17Y (antibody, human IgG2, kappa, V domains shown, Human engineered IgG2, kappa) VH: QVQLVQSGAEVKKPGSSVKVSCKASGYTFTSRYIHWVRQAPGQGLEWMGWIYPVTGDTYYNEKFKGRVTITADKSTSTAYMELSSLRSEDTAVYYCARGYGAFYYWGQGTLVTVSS VL: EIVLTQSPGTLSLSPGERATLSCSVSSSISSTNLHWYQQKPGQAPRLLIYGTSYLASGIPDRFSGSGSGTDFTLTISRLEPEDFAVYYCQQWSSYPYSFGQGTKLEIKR : 0.314

Looking up D11-8B8 (antibody, human IgG2, kappa, V domains shown, Human engineered IgG2, kappa; expressed in HEK293 EBNA cells; also called Mab D11-8B8) VH: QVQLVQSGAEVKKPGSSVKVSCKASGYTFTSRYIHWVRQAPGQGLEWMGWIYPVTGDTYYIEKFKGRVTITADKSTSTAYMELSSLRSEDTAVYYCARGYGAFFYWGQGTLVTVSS VL: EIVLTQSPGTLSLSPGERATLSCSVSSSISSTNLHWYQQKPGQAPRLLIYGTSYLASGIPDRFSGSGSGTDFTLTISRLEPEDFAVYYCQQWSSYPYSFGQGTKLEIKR , I found its Average A450 nm recorded as 0.304

Short answer for C8-H241 (antibody, human IgG2, kappa, V domains shown, Called IgG4, kappa; also called Mab C8-H241) VH: QVQLVQSGAEVKKPGASVKVSCKASGYTFTDYYMHWVRQAPGQGLEWMGRVNPNRRGTTYNQKFEGRVTMTTDTSTSTAYMELRSLRSDDTAVYYCARANWLDYWGQGTTVTVSS VL: DIQMTQSPSSLSASVGDRVTITCSVSSSVSSIYLHWYQQKPGKAPKLLIYSTSNLASGVPSRFSGSGSGTDFTLTISSLQPEDFATYYCQVYSGYPLTFGGGTKVEIKR : Average A450 nm was 0.317
